Hey, just so you know, these numbers are from ChEMBL document CHEMBL5291721.

Values of AC50 reported for Histamine H1 receptor (Homo sapiens, UniProt P35367) appear below.

Read off the recorded AC50 for CC(C)NC(=N)NC(=N)Nc1ccc(Cl)c(Cl)c1 [CHLORPROGUANIL]
> 30 µM

Read off the recorded AC50 for CC(Cc1cccc(C(F)(F)F)c1)NCCOC(=O)c1ccccc1 (stereo not drawn) [BENFLUOREX]
13.5 µM

Read off the recorded AC50 for c1ccc(C2(N3CCCCC3)CCCCC2)cc1 [PHENCYCLIDINE]
> 30 µM

Read off the recorded AC50 for O=c1c(O)c(-c2ccc(O)c(O)c2)oc2cc(O)cc(O)c12 [QUERCETIN]
> 10 µM

Read off the recorded AC50 for C=CC[N+]1([C@H]2C[C@H]3[C@@H]4CC[C@H]5C[C@H](O)[C@@H](N6CCOCC6)C[C@]5(C)[C@H]4CC[C@]3(C)[C@H]2OC(C)=O)CCCC1 [ROCURONIUM]
> 30 µM

Continuing:
Read off the recorded AC50 for CCCC(C)(COC(N)=O)COC(N)=O [MEPROBAMATE]
> 10 µM

Read off the recorded AC50 for CN[C@@H](C)[C@@H](O)c1ccccc1 [PSEUDOEPHEDRINE]
> 10 µM

Read off the recorded AC50 for C[N+](C)(C)CCOP(=O)(O)OP(=O)([O-])OC[C@H]1O[C@@H](n2ccc(N)nc2=O)[C@H](O)[C@@H]1O [CITICOLINE]
> 30 µM
